Reference source: paper PMC8615111

method: ABTS˙^+ radical scavenging assay
Format: biochemical
assay.context: 0.75 µg/mL
reported.metric: % of ABTS˙^+ Scavenged (%)

>>> recorded_measurement("O=C1O[C@H]([C@@H](O)CO)C(O)=C1O [Ascorbic acid, reference compound]")
14.32
>>> recorded_measurement("Cc1csc(N/N=C/c2ccc(O)cc2O)n1.Cl [Compound 5b]")
41.10
>>> recorded_measurement("C/C(=N\\Nc1nc(-c2ccc(O)c(O)c2)cs1)c1ccc(O)cc1O.Cl [Compound 8a]")
33.32
>>> recorded_measurement("Cl.Oc1ccc(/C=N/Nc2nc(-c3ccc(O)c(O)c3)cs2)c(O)c1 [Compound 8b]")
44.44
>>> recorded_measurement("Br.Oc1ccc(/C=N/Nc2nc(-c3ccccc3)cs2)c(O)c1 [Compound 6b]")
17.45

###

Tested on: S. aureus ATCC 25923
method: Antimicrobial activity, modified microdilution
Type: cell-based
assay.context: Staphylococcus aureus, ATCC25923
List of MIC values.
reported.metric: MIC (µg/mL)

>>> recorded_measurement("O=C(N[C@H](CO)[C@H](O)c1ccc([N+](=O)[O-])cc1)C(Cl)Cl [Chloramphenicol, reference compound]")
7.8
>>> recorded_measurement("Br.C/C(=N\\Nc1nc(-c2ccc(O)c(C(N)=O)c2)cs1)c1ccc(O)cc1O")
62.4
>>> recorded_measurement("CCn1cc(C(=O)O)c(=O)c2cc(F)c(N3CCNCC3)cc21 [Norfloxacin, reference compound]")
0.48

###

method: Ferric ions (Fe^3+) reducing antioxidant power by cyclic voltammetry
assay.context: compound alone 0.5 mM in 0.1 M HClO4; 3rd Iox column
Protocol: The evaluated compounds’ stock solutions used were prepared at a concentration of 5 mM. To test their redox properties, dilutions of 0.5 mM and 2 mM were prepared in 0.1 M HClO4 electrolyte (pH = 1.2). Screen-printed electrodes (SPEs; Metrohm DropSens, Oviedo, Spain) (planar electrodes) with graphite and gold working electrodes were used. […] This method is based on the evaluation of the influence of the compound measured by the direct reduction of Fe[(CN)6]^3− to Fe[(CN)6]^2−. […]
Measured Iox (μA) of individual entries
reported.metric: Iox (μA)

>>> recorded_measurement("C/C(=N\\Nc1nc(-c2ccc(O)c(O)c2)cs1)c1ccc(O)cc1O.Cl [Compound 8a]")
7.42
>>> recorded_measurement("C/C(=N\\Nc1nc(C)cs1)c1ccc(O)cc1O [Compound 5a]")
5.23
>>> recorded_measurement("Cl.Oc1ccc(/C=N/Nc2nc(-c3ccc(O)c(O)c3)cs2)c(O)c1 [Compound 8b]")
1.76
>>> recorded_measurement("Br.C/C(=N\\Nc1nc(-c2ccccc2)cs1)c1ccc(O)cc1O [Compound 6a]")
6.79
>>> recorded_measurement("Br.C/C(=N\\Nc1nc(-c2ccc(O)c(C(N)=O)c2)cs1)c1ccc(O)cc1O [Compound 7a]")
1.95

###

method: DPPH˙ radical scavenging by cyclic voltammetry
assay.context: compound alone 0.5 mM in 0.1 M HClO4; 1st Iox column
Method: […] The radical scavenging properties of the novel compounds and the other antioxidants were determined using a stock DPPH˙ radical solution prepared in absolute ethanol. […] The remaining redox activity of DPPH was measured by cycling the potential between −0.7 V and 1.2 V, with a scan rate of 0.1 V/s. […]
// values below are reported Iox (μA)
reported.metric: Iox (μA)

>>> recorded_measurement("Br.C/C(=N\\Nc1nc(-c2ccc(O)c(C(N)=O)c2)cs1)c1ccc(O)cc1O")
3.21
>>> recorded_measurement("C/C(=N\\Nc1nc(-c2ccc(O)c(O)c2)cs1)c1ccc(O)cc1O.Cl")
3.56
>>> recorded_measurement("Cl.Oc1ccc(/C=N/Nc2nc(-c3ccc(O)c(O)c3)cs2)c(O)c1")
10.92
>>> recorded_measurement("Br.C/C(=N\\Nc1nc(-c2ccccc2)cs1)c1ccc(O)cc1O")
4.99
